Give inhibition at 0.3 µM for every item shown.
# System: P2X7 receptor (Homo sapiens, UniProt Q99572)
# Construct: host or cells: THP-1 cells differentiated with LPS and IFN-γ
# Sequence (Q99572 1-595): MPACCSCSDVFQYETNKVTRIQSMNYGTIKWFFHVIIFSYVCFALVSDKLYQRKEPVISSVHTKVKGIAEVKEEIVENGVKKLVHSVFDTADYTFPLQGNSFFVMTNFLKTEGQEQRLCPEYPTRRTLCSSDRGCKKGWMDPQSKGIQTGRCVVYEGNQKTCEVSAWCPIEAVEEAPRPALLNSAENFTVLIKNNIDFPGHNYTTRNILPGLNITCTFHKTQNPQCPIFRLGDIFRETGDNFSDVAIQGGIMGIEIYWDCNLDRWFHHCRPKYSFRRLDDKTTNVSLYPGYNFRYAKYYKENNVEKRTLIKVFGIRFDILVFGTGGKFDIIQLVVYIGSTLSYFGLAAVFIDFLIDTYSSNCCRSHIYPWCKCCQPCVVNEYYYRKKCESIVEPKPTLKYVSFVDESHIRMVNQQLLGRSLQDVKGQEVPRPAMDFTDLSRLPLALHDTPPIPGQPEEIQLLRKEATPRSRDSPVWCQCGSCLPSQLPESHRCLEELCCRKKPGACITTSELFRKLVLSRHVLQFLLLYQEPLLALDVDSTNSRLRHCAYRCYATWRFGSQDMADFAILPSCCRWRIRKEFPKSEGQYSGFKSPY
# Method summary: IL-1β release assay in differentiated THP-1 cells stimulated with BzATP (Example 9)
# Type: cell-based
# Conditions used: 0.3 μM compound; differentiated THP-1 cells, BzATP 250 uM; '+' class symbols; read-out: IL-1β % Inhib. @ 0.3 μM

INSERT INTO measurements (test_smiles, assay_endpoint, observed_result) VALUES
  ('Cc1ccc(CCC(=O)Nc2cccc3c(=O)n(CCN(C)C)ccc23)c(C)c1', 'inhibition at 0.3 µM', '0 to 25%'),
  ('O=C(CCc1ccc(Cl)cc1)Nc1cccc2c(=O)n(CC3CCOCC3)ccc12', 'inhibition at 0.3 µM', '0 to 25%'),
  ('COc1ccc(CC(=O)Nc2cccc3c(=O)n(CC4CCOCC4)ccc23)cc1OC', 'inhibition at 0.3 µM', '0 to 25%'),
  ('Cc1cc(C)c(CC(=O)Nc2cccc3c(=O)n(CC(C)(C)C)ccc23)c(C)c1', 'inhibition at 0.3 µM', '0 to 25%');

Give inhibition at 0.3 µM for each listed item.
1. COc1ccc(C(=O)Nc2cccc3c(=O)n(Cc4cccnc4)ccc23)c(C)c1
2. COc1ccc(C(=O)Nc2cccc3c(=O)n(CCN4CCOCC4)ccc23)cc1Cl
3. Cc1ccc(Cl)c(C(=O)Nc2cccc3c(=O)n(CCN(C)C)ccc23)c1
4. CN(C)CCn1ccc2c(NC(=O)c3ccccc3)cccc2c1=O

Result:
1. 0 to 25%
2. 0 to 25%
3. 0 to 25%
4. 0 to 25%

Give inhibition at 0.3 µM for each listed item.
1. CC(C)(C)c1ccc(C(=O)Nc2cccc3c(=O)n(CC4CCOCC4)ccc23)cc1
2. CN(C)CCn1ccc2c(NC(=O)Cc3ccc(Cl)cc3)cccc2c1=O
3. COc1ccc(CC(=O)Nc2cccc3c(=O)n(CCN(C)C)ccc23)cc1
4. O=C(Nc1cccc2c(=O)n(CC3CCOCC3)ccc12)c1ccc2c(c1)OCCCO2
5. Cc1cccc(CC(=O)Nc2cccc3c(=O)n(CC4CCOCC4)ccc23)c1

Result:
1: 0 to 25%; 2: ≥ 76%; 3: 51 to 75%; 4: 0 to 25%; 5: 0 to 25%

Give inhibition at 0.3 µM for each listed item.
1. COc1ccc(OC)c(CC(=O)Nc2cccc3c(=O)n(CC4CCOCC4)ccc23)c1
2. Cc1cc(C)c(CC(=O)Nc2cccc3c(=O)n(Cc4cccnc4)ccc23)c(C)c1
3. O=C(Nc1cccc2c(=O)n(CC3CCOCC3)ccc12)c1ccccc1Cl

Result:
["0 to 25%", "0 to 25%", "26 to 50%"]

Problem: Item under review: CN(C)CCn1ccc2c(NC(=O)c3cc4cc(Cl)ccc4o3)cccc2c1=O . Reported inhibition at 0.3 µM?
Result: 0 to 25%
